# assay.method.text: yeast display, Sf9 membrane polyspecificity reagent, FACS + sequencing; frameworks hold sequencing errors
experimental.endpoint: polyreactivity (PSR sort gate)

For orientation, consider the following solved cases.
QVQLVESGGGLVQAGGSLRLSCAASGSTFNGNVMGWYRQAPGKERELVAGISKSGGTTYYADSVKGRFTISRDNAKNTVYLQMNSLKPEDTAVYYCAARGRVRYYPQYDYWGQGTQVTVSS :: high polyreactivity
QVQLVESGGGLVQAGGSLRLSCAASGFIFATNAMGWYRQAPGKEREFVAAITSGGSTYYADSVKGRFTISRDNAKNTVYLQMNSLKPEDTAVYYCNARTYSRVTRQTYRYRPYDYWGQGTQVTVSS :: high polyreactivity
QVQLVESGGGLVQAGGSLRLSCAASGSSFSGNFMGWYRQAPGKERELVAAISGRGGSTYYADSVKGRFTISRDNAKNTVYLQMNSLKPEDTAVYYCDAVYLKTYYWGLGTQVTVSS :: high polyreactivity
QVQLVESGGGLVQAGGSLRLSCAASGYIFVFNTMGWYRQAPGKERELVASISWDAGTTYYADSVKGRFTISRDNAKNTVYLQMNSLKPEDTAVDYCNAGRIRSGYLDYWGQGTQVTVSS :: low polyreactivity
QVQLVESGGGLVQAGGSLRLSCAASGSTFRRYVMGWYRQAPGKERELVAAIRWNVGSTYYADSVKGRFTISRDNAKNTVYLQMNSLKPEDTAVYYCAAYEYVRGGYGYWGQGTQVTVSS :: high polyreactivity

Noted for "QVQLVESGGGLVQAGGSLRLSCAASGRTFAWYAMGWYRQAPGKERELVAAISNVGSTYYADSVKGRFTISRDNAKNTVYLHMNSLKPEHTAVYYCNADAVSTDGREYWGQGTQVTVSS" : its polyreactivity (PSR sort gate) reads low polyreactivity

polyreactivity (PSR sort gate) reading for "HVQLQESGGGLVQACGSLRLSCAASGTIFKVVDMGLYRQSPAKEREFVATIGEGGNTYYADSVKGRFTISRDNAKNTVYLQMNSLKPEDTAVYFYEVVMGTSYRYTYWGQGTHVTVSS" : low polyreactivity

The recorded polyreactivity (PSR sort gate) for "QVQLVESGGGLVQAGGSLRLSCAASGRIFSVNAMGWYRQAPGKERELVAAITPGASTNYADSVKGRFTISRDNAKNTVYLQMNSLKPEDTAVYYCAAGWVSFEDWVLGSYYEFDYWGQGTQVTVSS" is low polyreactivity

// polyreactivity (PSR sort gate) lookup, sequence = "QVKLVESGGGLVQAGGSLRISCAASVSIFPVYAMGWYRQAPGKERELVAAISSRGGRTYYADSVKGLFTISRDNAKNTVYLQMNSLKPEDNAVYYFATDYSTYYRLPSQYDYWGQGTQVTVSS" , result: low polyreactivity

What the record says about "QVQLVDSGGGLVQAGGSLLLSCSASGSIFFSYAMGLYRQAPGKEREFVAAINSDDASTYADSVKGRFTISRDNAKNTVYLQMNSLKPEDTAVYYCAASFLWSWYDYWGQGTQVTVSS" : polyreactivity (PSR sort gate) is low polyreactivity

Documented polyreactivity (PSR sort gate) of "QVQLVESGGGLVQAGGSLRLSCAASGIIFWKYAMGWYRQAPGKERELVAAISSRGGSTYYADSVKGRLTISRDNAKNTVYLQMNSLKPEDTAVYYCAGEDWYYGFDYWRQGTQVTVSS" : high polyreactivity
